Biological target: T1, MPDZ_12, O75970
T1 sequence (O75970 1857-1958, limits assumed, looked up): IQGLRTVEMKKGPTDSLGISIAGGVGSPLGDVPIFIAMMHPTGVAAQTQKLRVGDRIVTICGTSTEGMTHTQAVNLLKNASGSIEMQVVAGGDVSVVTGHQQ
Assay: holdup assay
Set-up: key: below the threshold = too weak to quantify, mostly under pKd 3.1 to 4
Conditions: plain residues with an end cap or a label only (N-terminal biotin on a linker: ado-ado)
result.type: pKd

Below: 6 binders and their reported pKd.
* PEKVSNTTVV [IGSF5, Q9NSI5] | below the threshold
* EKPIDSETKM [SLC1A3, P43003] | below the threshold
* QQGLLPHSSC [TYRO3, Q06418] | 3.6
* ATKDKKITTV [EXOC4, Q96A65] | below the threshold
* THHRKIHTRV [ZNF599, Q96NL3] | below the threshold
* HDDYFYHDEL [RCN2, Q14257] | below the threshold

-- ask Name the reported pKd value associated with the binder NNMAFETTHF [SLC5A12, Q1EHB4]
-- reply below the threshold

-- ask Name the reported pKd value associated with the binder ADEMICITTL [CACNA1D, Q01668]
-- reply 4.02
